The measured values listed here are drawn from patent US9056840B2.

Biological target: apoaequorin (Aequorea victoria, UniProt P07164)
Construct: purchased Chisso Corporation
Sequence (P07164 other isoform, or with tags, fused parts or gaps with the stated changes): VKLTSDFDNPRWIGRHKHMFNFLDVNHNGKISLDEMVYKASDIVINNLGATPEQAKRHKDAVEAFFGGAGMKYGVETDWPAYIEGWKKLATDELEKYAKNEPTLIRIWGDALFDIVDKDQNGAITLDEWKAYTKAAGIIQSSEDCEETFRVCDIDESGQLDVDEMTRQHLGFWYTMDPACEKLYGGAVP
Assay: Fluorescence spectra of semi-synthetic BFP (coelenteramide analogue + apoaequorin, CaCl2)
Type: physicochemical
Details: 10 mM CaCl2 buffer, excitation 337 nm
Label satisfied when Semi-synthetic BFP (Buffer containing CaCl2) Maximum fluorescence wavelength λmax (nm) < 500 nm; otherwise not satisfied.

* O=C(Cc1ccc(O)cc1)Nc1ncc(-c2ccc(O)cc2)nc1Cc1ccccc1 [Coelenteramide] | satisfied
* O=C(Cc1ccc(O)cc1)Nc1cnc(-c2ccc(O)cc2)cn1 [Compound 4s] | satisfied
* O=C(Cc1ccc(O)cc1)Nc1ncc(-c2ccc(O)cc2)nc1-c1cc2sccc2s1 [Compound 4k] | not satisfied

Query block: Check if Semi-synthetic BFP (Buffer containing CaCl2) Maximum fluorescence wavelength λmax (nm) falls below 500 nm for O=C(Cc1ccc(O)cc1)Nc1ncc(-c2ccc(O)cc2)nc1-c1cc2ccccc2s1 [Compound 4h] .
Result block: satisfied

Query block: Check if Semi-synthetic BFP (Buffer containing CaCl2) Maximum fluorescence wavelength λmax (nm) falls below 500 nm for O=C(Cc1ccc(O)cc1)Nc1ncc(-c2ccc(O)cc2)nc1-c1cccs1 [Compound 4f] .
Result block: not satisfied
